experiment: total protein half-life in vivo (active degradation + dilution); higher = more stable protein
assaySetup: wild type E. coli NCM3722; growth: P-lim chemostat; doubling time 12 h
attributeMeasured: total protein half-life in vivo
I'd appreciate it if you included the unit after the number.

Data request: Retrieve total protein half-life in vivo measured for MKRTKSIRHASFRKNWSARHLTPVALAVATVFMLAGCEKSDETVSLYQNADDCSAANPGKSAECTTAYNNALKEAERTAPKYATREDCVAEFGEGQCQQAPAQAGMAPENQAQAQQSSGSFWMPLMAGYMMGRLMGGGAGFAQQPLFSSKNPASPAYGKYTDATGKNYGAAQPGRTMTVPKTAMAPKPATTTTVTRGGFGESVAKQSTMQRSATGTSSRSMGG [P0ADT2] and print it.
Data returned: 7.48 h

Data request: Retrieve total protein half-life in vivo measured for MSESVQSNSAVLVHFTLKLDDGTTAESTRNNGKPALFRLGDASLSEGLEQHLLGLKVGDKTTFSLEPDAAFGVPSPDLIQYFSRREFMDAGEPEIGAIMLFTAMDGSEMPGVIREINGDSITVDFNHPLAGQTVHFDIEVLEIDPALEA [P0AEM0] and print it.
Data returned: 11.6 h

Data request: Retrieve total protein half-life in vivo measured for MKITLLVTLLFGLVFLTTVGAAERTLTPQQQRMTSCNQQATAQALKGDARKTYMSDCLKNSKSAPGEKSLTPQQQKMRECNNQATQQSLKGDDRNKFMSACLKKAA [P0AFM4] and print it.
Data returned: 12.8 h

Data request: Retrieve total protein half-life in vivo measured for MLKRFFITGTDTSVGKTVVSRALLQALASQGKTVAGYKPVAKGSKETPEGLRNKDALVLQSVSTIELPYEAVNPIALSEEESSVAHSCPINYTLISNGLANLTEKVDHVVVEGTGGWRSLMNDLRPLSEWVVQEQLPVLMVVGIQEGCINHALLTAQAIANDGLPLIGWVANRINPGLAHYAEIIDVLGKKLPAPLIGELPYLPRAEQRELGQYIRLAMLRSVLAVDRVTV [P0A6E9] and print it.
Data returned: 5.74 h

###

Exercise: for every item that follows, state its recorded total protein half-life in vivo.
experiment: total protein half-life in vivo (active degradation + dilution); higher = more stable protein
assaySetup: wild type E. coli NCM3722; growth: P-lim chemostat; doubling time 6 h

Data request: Retrieve total protein half-life in vivo measured for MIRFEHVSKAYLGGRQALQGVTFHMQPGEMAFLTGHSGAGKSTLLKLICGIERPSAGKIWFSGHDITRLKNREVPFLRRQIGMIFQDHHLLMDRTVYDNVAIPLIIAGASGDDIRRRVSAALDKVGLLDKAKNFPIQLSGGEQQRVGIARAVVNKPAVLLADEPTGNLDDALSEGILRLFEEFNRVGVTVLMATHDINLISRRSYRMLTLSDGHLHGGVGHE [P0A9R7] and print it.
Data returned: 5.26 h

Data request: Retrieve total protein half-life in vivo measured for `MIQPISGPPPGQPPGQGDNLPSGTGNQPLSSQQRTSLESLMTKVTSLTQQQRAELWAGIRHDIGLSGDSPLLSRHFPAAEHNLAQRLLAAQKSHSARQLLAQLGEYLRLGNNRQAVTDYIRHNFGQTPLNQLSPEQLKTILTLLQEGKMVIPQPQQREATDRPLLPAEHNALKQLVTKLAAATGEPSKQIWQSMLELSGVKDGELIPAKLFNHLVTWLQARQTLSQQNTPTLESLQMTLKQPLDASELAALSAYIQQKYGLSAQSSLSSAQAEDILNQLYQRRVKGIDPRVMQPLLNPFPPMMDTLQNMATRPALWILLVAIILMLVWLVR` and print it.
Data returned: 3.71 h

Data request: Retrieve total protein half-life in vivo measured for `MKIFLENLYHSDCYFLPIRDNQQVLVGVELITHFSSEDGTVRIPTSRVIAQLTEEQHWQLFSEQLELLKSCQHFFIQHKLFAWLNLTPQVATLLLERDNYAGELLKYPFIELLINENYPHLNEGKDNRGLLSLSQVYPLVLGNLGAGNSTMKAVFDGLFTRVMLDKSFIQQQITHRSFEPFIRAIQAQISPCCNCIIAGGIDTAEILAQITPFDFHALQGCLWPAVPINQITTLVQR` and print it.
Data returned: 5.87 h
